TARGET_OF_ASSAY: UniProtKB P20309
RECORDED_METRIC: IC50 (nM)
Number only, in nM; omit the unit.

Lab request: please report IC50 under test system UniProtKB P20309 for O[C@@](CO[C@H]1C[N+]2(C3CC3)CCC1CC2)(c1ccccc1)C1CCCC1 [R2HBJJ]
0.38

* * *

TARGET_OF_ASSAY: human muscarinic receptor M4 (Homo sapiens)
Construct: purchased Perkin Elmer Life and Analytical Sciences
Sequence (P08173 whole entry): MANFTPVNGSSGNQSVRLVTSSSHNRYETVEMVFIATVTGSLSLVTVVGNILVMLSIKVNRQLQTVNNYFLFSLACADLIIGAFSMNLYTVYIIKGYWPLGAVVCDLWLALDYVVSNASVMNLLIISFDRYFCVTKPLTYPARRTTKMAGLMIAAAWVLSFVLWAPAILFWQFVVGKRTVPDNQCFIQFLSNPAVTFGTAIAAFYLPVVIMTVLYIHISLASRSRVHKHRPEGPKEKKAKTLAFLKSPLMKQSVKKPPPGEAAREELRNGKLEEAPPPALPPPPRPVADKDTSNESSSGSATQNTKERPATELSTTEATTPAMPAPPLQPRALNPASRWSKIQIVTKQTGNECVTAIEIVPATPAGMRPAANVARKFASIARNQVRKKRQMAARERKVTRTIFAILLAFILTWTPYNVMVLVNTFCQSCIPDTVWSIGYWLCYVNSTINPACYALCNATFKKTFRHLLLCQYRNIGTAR
EXPERIMENT_DESCRIPTION: biochemical
Type: binding
COND: 2.4 nM [3H]NMS, mean ± SD, n = 3, read-out: IC50 inhibiting [3H]NMS binding
RECORDED_METRIC: pIC50
Interpret pIC50 as the negative base-10 log of the concentration measured in mol/L.

# pIC50 lookup, item O[C@@](CO[C@H]1C[N+]2(C3CC3)CCC1CC2)(c1ccccc1)C1CCCC1
8.83

* * *

TARGET_OF_ASSAY: human muscarinic receptor M4 (Homo sapiens)
RECORDED_METRIC: Ki (nM)
Number only, in nM; omit the unit.

Lab request: please report Ki under test system human muscarinic receptor M4 (Homo sapiens) for O[C@@](CO[C@H]1C[N+]2(C3CC3)CCC1CC2)(c1ccccc1)C1CCCC1
0.106

* * *

TARGET_OF_ASSAY: human muscarinic receptor M2 (Homo sapiens, UniProt P08172)
Sequence (P08172 whole entry): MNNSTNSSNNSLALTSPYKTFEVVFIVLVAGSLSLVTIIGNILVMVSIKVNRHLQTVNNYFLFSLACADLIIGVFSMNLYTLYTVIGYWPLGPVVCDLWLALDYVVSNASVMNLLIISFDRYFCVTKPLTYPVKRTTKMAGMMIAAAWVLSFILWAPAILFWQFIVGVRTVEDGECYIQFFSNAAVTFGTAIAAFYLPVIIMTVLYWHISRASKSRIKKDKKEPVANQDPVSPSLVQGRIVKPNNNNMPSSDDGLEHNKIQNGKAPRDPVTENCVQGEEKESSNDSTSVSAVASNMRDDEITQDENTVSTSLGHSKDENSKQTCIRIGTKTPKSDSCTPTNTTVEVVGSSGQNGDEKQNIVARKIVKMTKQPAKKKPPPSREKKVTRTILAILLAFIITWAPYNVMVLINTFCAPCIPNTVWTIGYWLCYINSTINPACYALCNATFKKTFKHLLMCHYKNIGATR
RECORDED_METRIC: Ki
Write the figure, then the unit, nothing else.

Lab request: please report Ki under test system human muscarinic receptor M2 (Homo sapiens, UniProt P08172) for O[C@@](CO[C@H]1C[N+]2(C3CC3)CCC1CC2)(c1ccccc1)C1CCCC1 [R2HBJJ]
1.33 nM

* * *

TARGET_OF_ASSAY: human muscarinic receptor M3 (Homo sapiens)
Sequence (P20309 whole entry): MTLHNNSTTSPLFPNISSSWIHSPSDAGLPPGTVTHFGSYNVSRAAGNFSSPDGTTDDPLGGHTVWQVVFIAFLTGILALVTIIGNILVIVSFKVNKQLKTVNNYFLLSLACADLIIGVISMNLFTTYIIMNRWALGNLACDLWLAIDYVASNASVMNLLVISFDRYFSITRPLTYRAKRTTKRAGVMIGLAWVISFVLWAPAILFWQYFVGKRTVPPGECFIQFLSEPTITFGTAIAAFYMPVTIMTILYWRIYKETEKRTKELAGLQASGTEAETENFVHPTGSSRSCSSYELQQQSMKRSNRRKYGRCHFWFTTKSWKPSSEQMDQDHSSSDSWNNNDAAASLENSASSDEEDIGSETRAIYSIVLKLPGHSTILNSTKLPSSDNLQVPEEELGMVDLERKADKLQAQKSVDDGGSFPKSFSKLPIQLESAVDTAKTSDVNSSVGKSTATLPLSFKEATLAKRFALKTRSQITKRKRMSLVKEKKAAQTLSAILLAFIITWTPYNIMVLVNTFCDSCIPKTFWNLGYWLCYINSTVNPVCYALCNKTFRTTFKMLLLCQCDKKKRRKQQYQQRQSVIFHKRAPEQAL
RECORDED_METRIC: Ki (pM)
Number only, in pM; omit the unit.

Lab request: please report Ki under test system human muscarinic receptor M3 (Homo sapiens) for O[C@@](CO[C@H]1C[N+]2(C3CC3)CCC1CC2)(c1ccccc1)C1CCCC1
67.9

FYI, the data here is from paper PMC3532118.
